Parameter: FGFR3/FGFR4 IC50 ratio. Scope: all listed entries.
TEST SYSTEM: FGFR4 (Homo sapiens (Human), UniProt P22455)
Sequence (P22455 22-802): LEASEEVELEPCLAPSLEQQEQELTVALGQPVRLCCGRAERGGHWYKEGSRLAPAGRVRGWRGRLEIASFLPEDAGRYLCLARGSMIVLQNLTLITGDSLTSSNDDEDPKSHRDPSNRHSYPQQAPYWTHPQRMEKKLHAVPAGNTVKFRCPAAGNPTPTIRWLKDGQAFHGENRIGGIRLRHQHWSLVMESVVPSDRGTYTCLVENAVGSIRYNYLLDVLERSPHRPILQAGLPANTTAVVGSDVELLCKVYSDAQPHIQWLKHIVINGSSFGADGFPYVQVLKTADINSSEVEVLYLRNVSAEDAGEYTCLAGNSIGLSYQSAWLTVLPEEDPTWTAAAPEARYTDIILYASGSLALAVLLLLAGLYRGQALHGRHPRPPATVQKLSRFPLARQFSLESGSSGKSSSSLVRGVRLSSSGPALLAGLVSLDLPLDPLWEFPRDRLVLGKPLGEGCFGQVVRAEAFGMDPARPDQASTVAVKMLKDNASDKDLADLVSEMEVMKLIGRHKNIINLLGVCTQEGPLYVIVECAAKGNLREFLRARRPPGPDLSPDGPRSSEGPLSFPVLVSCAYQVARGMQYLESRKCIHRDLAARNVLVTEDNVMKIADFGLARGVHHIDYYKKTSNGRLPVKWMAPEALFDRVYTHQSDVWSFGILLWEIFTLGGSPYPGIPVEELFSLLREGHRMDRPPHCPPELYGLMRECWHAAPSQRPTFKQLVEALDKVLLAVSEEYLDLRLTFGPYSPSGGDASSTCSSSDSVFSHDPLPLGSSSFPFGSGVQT
EXPERIMENT: FGFR Enzymatic Assay (FRET peptide phosphorylation), FGFR4
Format: biochemical
EXPERIMENTAL CONDITIONS: FGFR4 selectivity; pre-incubated for 4 hours

>  <MOLECULE>
COc1cc(OC)c(F)c(N2Cc3cnc(-c4cncc(C(=O)N5CCOCC5)c4)cc3C3(CC3)C2=O)c1F [Example 13]

>  <FGFR3/FGFR4 IC50 ratio>
>10

$$$$
>  <MOLECULE>
COc1cncc(-c2cc3c(cn2)CN(c2c(F)c(OC)cc(OC)c2F)C(=O)C32CC2)c1 [Example 10]

>  <FGFR3/FGFR4 IC50 ratio>
>10

$$$$
>  <MOLECULE>
COc1cc(OC)c(F)c(N2Cc3cnc(-c4cncc(-n5ccnc5)c4)cc3C3(CC3)C2=O)c1F [Example 12]

>  <FGFR3/FGFR4 IC50 ratio>
>10

$$$$
>  <MOLECULE>
COc1cc(OC)c(F)c(N2Cc3cnc(-c4cncc(N)c4)cc3C3(CC3)C2=O)c1F [Example 4]

>  <FGFR3/FGFR4 IC50 ratio>
>10

$$$$
>  <MOLECULE>
COc1cc(OC)c(F)c(N2Cc3cnc(-c4nn(C)cc4C#N)cc3C3(CC3)C2=O)c1F [Example 172]

>  <FGFR3/FGFR4 IC50 ratio>
>10

$$$$
>  <MOLECULE>
COc1cc(OC)c(F)c(N2Cc3cnc(-c4cc(N)c(F)cc4C)cc3C3(CC3)C2=O)c1F [Example 2]

>  <FGFR3/FGFR4 IC50 ratio>
>10

$$$$
>  <MOLECULE>
COc1cc(OC)c(F)c(N2Cc3cnc(-c4cncc(CN5CCOCC5)c4)cc3C3(CC3)C2=O)c1F [Example 16]

>  <FGFR3/FGFR4 IC50 ratio>
>10

$$$$
>  <MOLECULE>
COc1cc(OC)c(F)c(N2Cc3cnc(-c4cncc(C#N)c4)cc3C3(CC3)C2=O)c1F [Example 8]

>  <FGFR3/FGFR4 IC50 ratio>
>10

$$$$
>  <MOLECULE>
COc1cc(OC)c(F)c(N2Cc3cnc(-c4cncc(N5CCOCC5)c4)cc3C3(CC3)C2=O)c1F [Example 6]

>  <FGFR3/FGFR4 IC50 ratio>
>25

$$$$
>  <MOLECULE>
COc1cc(OC)c(F)c(N2Cc3cnc(-c4cncc(F)c4)cc3C3(CC3)C2=O)c1F [Example 5]

>  <FGFR3/FGFR4 IC50 ratio>
>1

$$$$
>  <MOLECULE>
COc1cc(OC)c(F)c(N2Cc3cnc(-c4cc(N)ccc4C#N)cc3C3(CC3)C2=O)c1F [Example 3]

>  <FGFR3/FGFR4 IC50 ratio>
>10

$$$$
>  <MOLECULE>
COc1cc(OC)c(F)c(N2Cc3cnc(-c4nn(CC#N)cc4C#N)cc3C3(CC3)C2=O)c1F [Example 174]

>  <FGFR3/FGFR4 IC50 ratio>
>25

$$$$
>  <MOLECULE>
COc1cc(OC)c(F)c(N2Cc3cnc(-c4cc(N)ccc4C)cc3C3(CC3)C2=O)c1F [Example 1]

>  <FGFR3/FGFR4 IC50 ratio>
>25

$$$$
>  <MOLECULE>
COc1cc(OC)c(F)c(N2Cc3cnc(-c4cc(N)cnc4C)cc3C3(CC3)C2=O)c1F [Example 7]

>  <FGFR3/FGFR4 IC50 ratio>
>25

$$$$
